Provenance of the data: ChEMBL document CHEMBL1201862

Tested on: SK-OV-3
test: NCI tumour cell line growth inhibition, 48 h
Active and inactive are the calls of the source. Cut-off read from the data, not from the text of the source: active = GI50 up to about 1.1 µM and inactive = higher.
result.type: GI50

* CC(C)NCCCC(C)Nc1ccnc2ccc3nn(C)nc3c12 (stereo not given) | > 100 µM (inactive)
* O=C(Nc1ccc([N+](=O)[O-])cc1C(=O)O)c1ccc([N+](=O)[O-])cc1 | 79.3 µM (inactive)
* CN(C)/C=C/C(=CC=[N+](C)C)/C=C/N(C)C.[O-][Cl+3]([O-])([O-])[O-] | 16.7 µM (inactive)
* O=C(O)Cc1ccccc1CCc1ccccc1Cl | > 100 µM (inactive)
* CC(=O)OCC1OC(n2c(C)c(C(C)=O)c(-c3ccco3)c(C#N)c2=S)C(OC(C)=O)C(OC(C)=O)C1OC(C)=O (stereo not given) | > 100 µM (inactive)
* NC(=O)CSc1c2cc(O)ccc2nc2ccc(O)cc12 | > 10 µM (inactive)
* CCOC(=O)c1c(C)n(C)c2c1cc(O)c1[nH]c3c(c12)CCCC3 | 29.4 µM (inactive)
* CC1=C(C(=O)Nc2ccccc2C)C(c2ccccc2)C(C(=O)Nc2ccccc2C)=C(C)N1 | > 100 µM (inactive)
* COC(=O)C1(C(=O)OC)CC2=C(S(=O)(=O)c3ccccc3)C[C@H](C#N)[C@H]2C1 | > 100 µM (inactive)
* CC1=CC2CC(C)=C(CC[C@]3(C)CC[C@H]([C@@H](C)C(=O)O)OO3)C(C)(C)C2CC1 (stereo not given in full) | 2.2 µM (inactive)
* CC(C)C(/C=C/c1ccc(Cl)c(Cl)c1)=N\NC(=O)N/N=C(/C=C/c1ccc(Cl)c(Cl)c1)C(C)C | > 100 µM (inactive)
* CNc1cccnc1/C=N/N=C(/N)S | 4.49 µM (inactive)
* CN(C)CCNC(=O)c1nc([N+](=O)[O-])cn1C | > 100 µM (inactive)
* COc1ccc2c3c([nH]c2c1)CCN(Cc1ccccc1)C3 | > 100 µM (inactive)
* Cc1cccc(-c2nnc3s/c(=C\c4ccc5c(c4)OCO5)c(=O)n23)c1 | > 100 µM (inactive)
* CCOC(=O)c1nnsc1NC(=O)Nc1ccc(Cc2ccc(NC(=O)Nc3snnc3C(=O)OCC)cc2)cc1 | 21.8 µM (inactive)
* N#CC1(Cc2ccccc2[N+](=O)[O-])c2ccccc2C2C(N1C(=O)c1ccccc1)C2(Cl)Cl (stereo not given) | > 100 µM (inactive)
* COc1ccc(C(=O)N(Cc2cccnc2)C(=S)N(Cc2cccnc2)C(=O)c2ccc(OC)cc2)cc1 | 67.3 µM (inactive)
* CC(C)N1CCOC(c2ccc(O)c(O)c2)C1 (stereo not given) | > 100 µM (inactive)
* CN(C)CCNC1=CC(=O)c2nc3ccccc3c3ccnc1c23 | 10.1 µM (inactive)

###

System: HL-60
test: NCI tumour cell line growth inhibition, 48 h
Active and inactive are the calls of the source. Rule as the data show it: active = GI50 up to about 1.1 µM and inactive = higher.
Classes used: active, inactive

• O=C(Cn1c(=O)oc2ccc(C(=O)c3ccc(F)cc3)cc21)c1ccccc1 = inactive
• Cn1cnc([N+](=O)[O-])c1Sc1nc(N)nc2c1ncn2Cc1ccccc1 = inactive
• O=C(c1ccco1)N(C(=S)N1CCN(c2ccccc2)CC1)C1CCCCC1 = inactive
• COc1cc(/C=C2\N=C(c3ccccc3)N(/N=C3\C(=O)Nc4ccccc43)C2=O)cc(OC)c1OC = inactive
• O=C(CC(O)(C(F)(F)F)C(F)(F)Cl)CC(O)(C(F)(F)F)C(F)(F)Cl (stereo not drawn) = inactive
• Cn1c2c(c3ccccc31)CCN(CCCN1CCN(c3ccccc3)CC1)C2=O = inactive
• CN(C)CCNc1ccc(C(=O)NCCCN(C)CCCNC(=O)c2ccc(NCCN(C)C)c3c(=O)c4ccccc4[nH]c23)c2[nH]c3ccccc3c(=O)c12 = active
• CC1=CC(=O)/C(=C/NC(=S)C(N)=S)C(=O)O1 = inactive
• CCCC/C=C1/CCC(CN(C)C)C1=O (stereo not drawn) = active
• O=C(CC(=O)CC(O)(C(F)(F)F)C(F)(F)F)CC(O)(C(F)(F)F)C(F)(F)F = inactive
• COc1cc2c(cn1)[nH]c1ccccc12 = inactive
• CCCCCCCCCCCC(=O)NCc1ccc(OC(=O)CCCCCCCCCCC)c(OC)c1 = inactive
• O=C(Oc1ccccn1)c1cc2cc(CCl)ccc2oc1=O = inactive
• COc1cc(CCc2ccc(N)cc2)cc(OC)c1OC = inactive
• COc1cc([C@H]2Oc3c(c(O)cc4oc(-c5ccccc5)cc(=O)c34)O[C@@H]2CO)ccc1O = inactive
• COC(=O)C1=CC2C(=O)OC1CC2C#N (stereo not drawn) = inactive
• CC(=O)OCC1OC(n2c(C)c(C(C)=O)c(-c3ccco3)c(C#N)c2=S)C(OC(C)=O)C(OC(C)=O)C1OC(C)=O (stereo not drawn) = inactive
• COc1ccc2c3c([nH]c2c1)CCN(Cc1ccccc1)C3 = inactive
• CC1(C)OCC2(CO1)CSCCCSCC1(COC(C)(C)OC1)CSCCCSC2 = inactive
• O=[PH](O)c1cc2ccccc2c2ccccc12 = inactive
• c1cc2ccc3cc4ncccc4c4ccc(c1)c2c34 = inactive
• CN(C)C(=S)/N=C1\SC(=N\c2ccccc2)/C(=N/c2ccccc2)N1c1ccc([N+](=O)[O-])cc1 = inactive
• Nc1nc(-c2ccccc2)cc(-c2ccccc2O)n1 = inactive
• O=C(Cn1c(C(=O)c2ccccc2)nc2ccccc21)c1ccccc1 = inactive
• O=S1(=O)CCC2=CC(C(F)(F)F)=CC(C(F)(F)F)=CN21 = active
• O=C(CSCC(=O)N/N=C\c1cccc(Br)c1)N/N=C\c1cccc(Br)c1 = inactive
• CC(C)(C)c1ccc(-c2nc3ccccc3c(=O)o2)cc1 = inactive
• C[N+](C)(C)CC(=O)N/N=C(\C(=O)Nc1ccc(Cl)cc1)C1C(=O)N(c2ccccc2)N=C1N (stereo not drawn) = inactive

###

In this section we review reported GI50 values for a set of compounds.
System: SNB-78
test: NCI tumour cell line growth inhibition, 48 h
Activity calls are given as the source filed them. Cut-off read from the data, not from the text of the source: active = GI50 up to about 1.1 µM and inactive = higher.
result.type: GI50

* COc1cc(Cl)cc(N(O)C(C)=O)c1OCc1ccccc1 | > 100 µM (inactive)
* CN(C)CC1CCC(CN(C)C)C1=NO (stereo unspecified) | > 100 µM (inactive)
* O=C(Nc1cc(Cl)cc(Cl)c1)/C(Cc1nc2ccccc2nc1O)=N/NC(=O)c1ccncc1 | > 100 µM (inactive)
* Cc1ccc(NC(=O)C(=O)C2C(=O)NC(=O)NC2=O)c(C)c1 | > 100 µM (inactive)
* Cc1oc2c(C)c3oc(=O)cc(C)c3cc2c1CN | 53.5 µM (inactive)
* CC1CCCP(=O)(c2ccccc2)CCC1 (stereo unspecified) | > 100 µM (inactive)

###

System: ACHN
test: NCI tumour cell line growth inhibition, 48 h
Active and inactive are the calls of the source. Cut-off read from the data, not from the text of the source: active = GI50 up to about 1.1 µM and inactive = higher.
result.type: GI50

* O=C1C=CC2(O[C@H](c3ccccc3)[C@@H](c3ccccc3)O2)[C@H](Sc2ccccc2O)C1 | 0.351 µM (active)
* COc1cc(C(=O)NNC(=O)c2cc(Br)ccc2NC(=O)c2cccs2)cc(OC)c1OC | 17 µM (inactive)
* O[C@H]1[C@H](O)[C@@H](O)[C@@]2(O)C[C@@H](O)[C@@H]1N2 | > 100 µM (inactive)

###

System: HT-29
test: NCI tumour cell line growth inhibition, 48 h
Calls of active or inactive are those of the source. Cut-off read from the data, not from the text of the source: active = GI50 up to about 1.1 µM and inactive = higher.
Classes used: active, inactive

- O=C(Cc1nc2ccccc2s1)C(=O)Nc1cccc(Cl)c1: inactive
- O=CC1=CCCC2(C1)OCCO2: inactive
- COc1ccc(-c2cc(O)c3cc(C)cnc3n2)cc1: inactive
- Cc1ncc(CSC(=N)N)n1Cc1ccccc1: inactive
- NC(=O)c1cccc(/N=c2\oc3ccc(Br)cc3cc2-c2nc3ccccc3[nH]2)c1: inactive
- C=C1C2CC(OC(C)=O)C3(C)C(c4ccoc4)OC(=O)[C@@H](O)[C@]13OC1C[C@H](OC(C)=O)C(C)(C)[C@H](CC(=O)OC)[C@]12C (stereo not given in full): inactive
- S=C(Nc1ccc(Cl)cc1)c1ccc(CN2CCCCC2)s1: inactive
- Cc1cc2[nH]c3[nH]c(=O)[nH]c(=O)c3c2cc1C: inactive
- O=S(=O)(O)c1cc(S(=O)(=O)O)c2c(/N=N/c3ccc(S(=O)(=O)O)c4ccccc34)c(O)ccc2c1: inactive
- O=[PH](O)c1cc2ccccc2c2ccccc12: inactive
- O=c1c2cc3c(=O)n4c(cc(-c5ccccc5)c5cc(Cl)ccc54)nc3cc2nc2cc(-c3ccccc3)c3cc(Cl)ccc3n12: inactive
- C[C@]1(O)CC(=O)c2c(c(-c3ccc4cc5c(c(O)c4c3O)C(=O)C[C@@](C)(O)C5)c3cccc(O)c3c2O)C1: inactive
- COc1ccc2c3c([nH]c2c1)CCN(Cc1ccccc1)C3: inactive
- Clc1ccc(OCC2NC3C=CC32)cn1 (stereo not given): inactive
- O=C1C=CC2(O[C@H](c3ccccc3)[C@@H](c3ccccc3)O2)[C@H](Sc2ccccc2O)C1: active
- COc1cc(C2c3cc4c(cc3OC3(OC)COC(=O)C23)OCO4)cc(OC)c1OC (stereo not given): active
- CCOC(=O)N/N=C(/N)c1cccc([N+](=O)[O-])c1: inactive
- CN1C(=O)C(C)(C)C2(SC(C)(C)C2(C)C)N(C)C1=S (stereo not given): inactive
- CCN(CC)c1ccc2cc(-c3csc(-c4ccc(N(C)C)cc4)n3)c(=O)oc2c1: inactive
- [N-]=[N+]=Nc1c(Cl)c(Cl)nc2ccccc12: inactive
- N#CC1(Cc2ccccc2[N+](=O)[O-])c2ccccc2C2C(N1C(=O)c1ccccc1)C2(Cl)Cl (stereo not given): inactive
- COc1ccc(C(=O)N2CCN(c3ccc4[nH]c(=O)oc4c3)CC2)cc1: inactive
- C[C@@H](NC(C#N)c1ccco1)c1ccccc1 (stereo not given in full): inactive
- N#Cc1c(N)c(C#N)c2c(c1-c1ccc(Cl)cc1)COc1ccccc1-2: inactive
- Nc1nc(N)c2nnn(C[C@H]3CC[C@@H](CO)C3)c2n1: inactive
- COc1cccc(CCn2c(N)c(C(=O)O)c3ccc([N+](=O)[O-])cc3c2=O)c1: inactive
- Cc1cc(OCC(O)CO)ccc1Cl (stereo not given): inactive
- CN(C)c1cc2ccccc2oc1=O: inactive
- CC1CCCP(=O)(c2ccccc2)CCC1 (stereo not given): inactive
- CCCCNc1nc2ccccc2c2c1ncn2CC(C)C: inactive
